As shown below, each of these binders has a reported pEC50 value.
System Under Test: HLA-A*0201 class I monomer of the iTopia Epitope Discovery System
Protocol: iTopia binding ED50
pEC50: −log10 of the molar value.
Assay Endpoint: pEC50

- GLPSIPVHPI [PSMA288-297]: 5.88
- GQPSIPVHPI [PSMA288-297 analog, Gln at P2]: 6.17
- GMPSIPVHPI [PSMA288-297 analog, Met at P2]: 5.97
- GVPSIPVHPI [PSMA288-297 analog, Val at P2]: 5.62
